method: Pharmacokinetic parameters
Type: in vivo
particulars: in vivo, po; species not given

# compound, result comparator, bioavailability [%]
data = [
    ("N#Cc1cccc(C(C(=O)NCC(c2ccccc2)c2ccccc2)N(CCc2c[nH]cn2)C(=O)c2ccccc2C(=O)c2ccccc2)c1 (centres unmarked)", "=", 26),
    ("O=C(c1ccccc1)c1ccccc1C(=O)N(CCc1c[nH]cn1)C(Cc1ccccc1)C(=O)NCC(c1ccccc1)c1ccccc1 (racemic)", "<", 1),
]
